test.target: hA2AAR (Homo sapiens)
Construct: expressed in transfected cells
protocol: Radioligand binding at human A2A AR ([3H]CGS21680, membranes of HEK-293 cells)
measure: inhibition at 10 µM (%)

O=[N+]([O-])c1cc(-n2cc(CNc3nc(Cl)nc4c3ncn4[C@H]3[C@H](O)[C@H](O)[C@@H]4C[C@@H]43)nn2)ccc1F [Compound 223] : 19.2
CNC(=O)[C@@]12C[C@@H]1[C@@H](n1cnc3c(NCc4cccc(Cl)c4)nc(C#CCCCCc4cn(CCCCCCNC(=O)CCCC[C@@H]5SC[C@@H]6NC(=O)N[C@@H]65)nn4)nc31)[C@H](O)[C@@H]2O [Compound 20] : 27
CNC(=O)[C@@]12C[C@@H]1[C@@H](n1cnc3c(NCc4cccc(C#CCCCCc5cn(C67CC8CC(CC(C8)C6)C7)nn5)c4)nc(Cl)nc31)[C@H](O)[C@@H]2O [Compound 206] : 17
O=[N+]([O-])c1cc(-n2cc(CCCCC#Cc3cccc(CNc4nc(Cl)nc5c4ncn5[C@H]4[C@H](O)[C@H](O)[C@@H]5C[C@@H]54)c3)nn2)ccc1F [Compound 215] : 8.2
CNC(=O)[C@@]12C[C@@H]1[C@@H](n1cnc3c(NCc4cccc(C#CCCCCCc5cn(-c6ccc(F)c([N+](=O)[O-])c6)nn5)c4)nc(Cl)nc31)[C@H](O)[C@@H]2O [Compound 205] : 25.2

(1) O=[N+]([O-])c1cc(-n2cc(CCCCCC#Cc3cccc(CNc4nc(Cl)nc5c4ncn5[C@H]4[C@H](O)[C@H](O)[C@@H]5C[C@@H]54)c3)nn2)ccc1F [Compound 216]
(2) C#CCNc1nc(Cl)nc2c1ncn2[C@H]1[C@H](O)[C@H](O)[C@@H]2C[C@@H]21 [Compound 222]
Query block: Hi there! Just curious which has the higher inhibition at 10 µM between 1 and 2 . # respond with the chosen item's label
Result block: 2

---

test.target: hA2AAR (Homo sapiens, UniProt P29274)
Construct: expressed in transfected cells
Sequence (P29274 whole entry): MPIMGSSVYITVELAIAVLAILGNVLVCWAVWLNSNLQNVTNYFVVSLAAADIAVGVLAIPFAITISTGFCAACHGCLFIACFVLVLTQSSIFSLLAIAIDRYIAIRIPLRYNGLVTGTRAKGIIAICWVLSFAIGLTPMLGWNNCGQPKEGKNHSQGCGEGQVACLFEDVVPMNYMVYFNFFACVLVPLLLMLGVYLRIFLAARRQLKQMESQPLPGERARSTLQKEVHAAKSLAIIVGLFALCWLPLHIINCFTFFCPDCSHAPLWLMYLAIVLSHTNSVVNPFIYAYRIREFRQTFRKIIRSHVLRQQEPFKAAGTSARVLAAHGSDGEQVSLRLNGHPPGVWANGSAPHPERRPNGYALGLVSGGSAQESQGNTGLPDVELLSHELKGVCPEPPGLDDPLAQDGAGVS
protocol: Radioligand binding at human A2A AR ([3H]CGS21680, membranes of HEK-293 cells)
measure: inhibition at 10 µM (%)

O[C@@H]1[C@H](O)[C@@H]2C[C@@H]2[C@H]1n1cnc2c(NCc3cn(C45CC6CC(CC(C6)C4)C5)nn3)nc(Cl)nc21 [Compound 224] : 22.5

(I) C#CCCCCCC#Cc1cccc(CNc2nc(Cl)nc3c2ncn3[C@H]2[C@H](O)[C@H](O)[C@]3(C(=O)NC)C[C@H]23)c1 [Compound 202]
(II) CNC(=O)[C@@]12C[C@@H]1[C@@H](n1cnc3c(NCc4cccc(C#CCCCCc5cn(-c6ccc(F)c([N+](=O)[O-])c6)nn5)c4)nc(Cl)nc31)[C@H](O)[C@@H]2O [Compound 204]
Query block: Given the listed records, identify the one among I and II with higher inhibition at 10 µM. Record your answer as the label of the chosen record.
Result block: II

---

test.target: human A3AR (Homo sapiens, UniProt P0DMS8)
Construct: expressed in transfected cells
protocol: Radioligand binding at human A3 AR ([125I]I-AB-MECA, membranes of CHO cells)
measurement.context: Example 7; agonist radioligand [125I]47; read-out: AR Affinity Ki, nM, A3
measure: Ki (nM)

The examples below pair each entry with its known result.
O=[N+]([O-])c1cc(-n2cc(CCCCCC#Cc3cccc(CNc4nc(Cl)nc5c4ncn5[C@H]4[C@H](O)[C@H](O)[C@@H]5C[C@@H]54)c3)nn2)ccc1F : 521
CNC(=O)[C@@]12C[C@@H]1[C@@H](n1cnc3c(NCc4cn(C56CC7CC(CC(C7)C5)C6)nn4)nc(Cl)nc31)[C@H](O)[C@@H]2O : 38.1
C#CCCCCCC#Cc1cccc(CNc2nc(Cl)nc3c2ncn3[C@H]2[C@H](O)[C@H](O)[C@]3(C(=O)NC)C[C@H]23)c1 : 87.2

(P) O=[N+]([O-])c1cc(-n2cc(CNc3nc(Cl)nc4c3ncn4[C@H]3[C@H](O)[C@H](O)[C@@H]4C[C@@H]43)nn2)ccc1F
(Q) CNC(=O)[C@@]12C[C@@H]1[C@@H](n1cnc3c(NCc4cccc(C#CCCCc5cn(-c6ccc(F)c(N)c6)nn5)c4)nc(Cl)nc31)[C@H](O)[C@@H]2O
Query block: Which value of Ki is smaller, the one for P or the one for Q ? # respond with the chosen item's label
Result block: Q
(Q: 14.3 nM, P: 388 nM)

---

test.target: human A3AR (Homo sapiens, UniProt P0DMS8)
Construct: expressed in transfected cells
protocol: Cyclic AMP accumulation assay: inhibition of forskolin-stimulated cyclic AMP production in AR-transfected CHO cells
Assay type: cell-based
measurement.context: at 10 μM, in comparison to the maximal effect of full agonist NECA at 10 μM
measure: % Inhibition of cAMP formation at hA3 AR (%)

For orientation, consider the following solved cases.
CNC(=O)[C@@]12C[C@@H]1[C@@H](n1cnc3c(NCc4cccc(Cl)c4)nc(C#CCCCCc4cn(CCCCNC(C)=O)nn4)nc31)[C@H](O)[C@@H]2O [Compound 17] : 59.7
CNC(=O)[C@@]12C[C@@H]1[C@@H](n1cnc3c(NCc4cccc(Cl)c4)nc(C#CCCCCc4cn(CCCCN)nn4)nc31)[C@H](O)[C@@H]2O [Compound 16] : 64.4
CNC(=O)[C@@]12C[C@@H]1[C@@H](n1cnc3c(NCc4cccc(Cl)c4)nc(C#CCCCCc4cn(Cc5ccc(-n6sccc6=O)cc5)nn4)nc31)[C@H](O)[C@@H]2O [Compound 19] : 75.9
CNC(=O)[C@@]12C[C@@H]1[C@@H](n1cnc3c(NCc4cccc(Cl)c4)nc(C#CCCCCc4cn(-c5ccc(N=C=S)cc5)nn4)nc31)[C@H](O)[C@@H]2O [Compound 26] : 19.5
CNC(=O)[C@@]12C[C@@H]1[C@@H](n1cnc3c(NCc4cccc(Cl)c4)nc(C#CCCCCc4cn(-c5ccc(F)c([N+](=O)[O-])c5)nn4)nc31)[C@H](O)[C@@H]2O [Compound 11] : 116

(1) CNC(=O)[C@@]12C[C@@H]1[C@@H](n1cnc3c(NCc4cccc(Cl)c4)nc(C#CCCCCc4cn(CCNC(C)=O)nn4)nc31)[C@H](O)[C@@H]2O [Compound 15]
(2) CNC(=O)[C@@]12C[C@@H]1[C@@H](n1cnc3c(NCc4cccc(Cl)c4)nc(C#CCCCCc4cn(-c5ccc(N)cc5)nn4)nc31)[C@H](O)[C@@H]2O [Compound 12]
Query block: Consider entries 1 and 2 . Which has the numerically lower % Inhibition of cAMP formation at hA3 AR? Refer to your chosen item by its label in the answer.
Result block: 2

---

test.target: human A3AR (Homo sapiens, UniProt P0DMS8)
Construct: expressed in transfected cells
Sequence (P0DMS8 1-318): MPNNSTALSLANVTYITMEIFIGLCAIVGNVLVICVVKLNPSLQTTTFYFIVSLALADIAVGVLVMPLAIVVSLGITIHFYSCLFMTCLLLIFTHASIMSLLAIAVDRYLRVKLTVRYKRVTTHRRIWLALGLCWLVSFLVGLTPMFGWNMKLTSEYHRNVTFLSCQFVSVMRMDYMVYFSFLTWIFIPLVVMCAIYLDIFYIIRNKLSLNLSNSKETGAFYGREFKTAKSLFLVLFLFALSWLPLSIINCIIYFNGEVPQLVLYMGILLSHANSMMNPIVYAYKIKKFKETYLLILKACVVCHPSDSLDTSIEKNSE
protocol: Radioligand binding at human A3 AR ([125I]I-AB-MECA, membranes of CHO cells)
measurement.context: [125I]38; CHO cells; read-out: Affinity (Ki, nM), A3
measure: Ki (nM)

CNC(=O)[C@@]12C[C@@H]1[C@@H](n1cnc3c(NCc4cccc(Cl)c4)nc(C#CCCCCc4cn(-c5ccc(C(=O)CBr)cc5)nn4)nc31)[C@H](O)[C@@H]2O : 9.6

(a) C#CCCCCC#Cc1nc(NCc2cccc(Cl)c2)c2ncn(C3C(O)C(O)C4(C(=O)NC)CC34)c2n1 (stereo not drawn)
(b) CNC(=O)[C@@]12C[C@@H]1[C@@H](n1cnc3c(NCc4cccc(Cl)c4)nc(C#CCCCCc4cn(Cc5ccc(-n6sccc6=O)cc5)nn4)nc31)[C@H](O)[C@@H]2O
Query block: Pick one: a or b . Which has the bigger Ki number? Refer to your chosen entry by its label in the reply.
Result block: b

---

test.target: human A3AR (Homo sapiens)
Construct: expressed in transfected cells
protocol: Cyclic AMP accumulation assay: inhibition of forskolin-stimulated cyclic AMP production in AR-transfected CHO cells
Type: cell-based
measurement.context: at 10 μM, in comparison to the maximal effect of full agonist NECA at 10 μM
measure: % Inhibition of cAMP formation at hA3 AR (%)

C#CCCCC#Cc1nc(NCc2cccc(Cl)c2)c2ncn(C3C(O)C(O)C4(C(=O)NC)CC34)c2n1 (stereo not drawn) : 18.3

(a) CNC(=O)[C@@]12C[C@@H]1[C@@H](n1cnc3c(NCc4cccc(Cl)c4)nc(C#CCCCCc4cn(CCCCCCNC(=O)c5ccc(-c6c7ccc(=N)c(S(=O)(=O)O)c-7oc7c(S(=O)(=O)O)c(N)ccc67)c(C(=O)O)c5)nn4)nc31)[C@H](O)[C@@H]2O
(b) CNC(=O)[C@@]12C[C@@H]1[C@@H](n1cnc3c(NCc4cccc(Cl)c4)nc(C#CCCCCc4cn(CCCCCCNC(=O)CCCC[C@@H]5SC[C@@H]6NC(=O)N[C@@H]65)nn4)nc31)[C@H](O)[C@@H]2O
Query block: // compare measured % Inhibition of cAMP formation at hA3 AR, left a , right b , return larger Mark your selection by writing its label.
Result block: b
(b: 55.6%, a: 37.8%)
